- Test system: HIV-1 Env-pseudoviruses (208-strain panel)
- method.notes: microbe, parasite or virus in culture
- Assay type: cell-based
- conditions.used: Human immunodeficiency virus 1, TZM-bl, ZM215.8, clade C; read-out: IC50

>  <molecule>
COc1cnc(-c2csc(C(=O)NCCO)n2)c2[nH]cc(C(=O)C(=O)N3CCC(=C(C#N)c4ccccc4)CC3)c12 [BMS-818251]

>  <IC50>
100 pM

$$$$

* * *

- Tested on: HIV-1 Env-pseudoviruses (208-strain panel)
- method.notes: microbe, parasite or virus in culture
- Type: cell-based
- conditions.used: Human immunodeficiency virus 1, TZM-bl, 263-8, clade AG; read-out: IC50

>  <compound>
COc1cnc(-c2csc(C(=O)NCCO)n2)c2[nH]cc(C(=O)C(=O)N3CCC(=C(C#N)c4ccccc4)CC3)c12 [BMS-818251]

>  <value.unit>
nM

>  <IC50>
0.1

$$$$

* * *

- System: HIV-1 Env-pseudoviruses (208-strain panel)
- method.notes: microbe, parasite or virus in culture
- Format: cell-based
- conditions.used: Human immunodeficiency virus 1, TZM-bl, 00836-2.5, clade C; read-out: IC50
pIC50: −log10 of the molar value.
readout.name: pIC50

>  <smiles.entry>
COc1cnc(-c2csc(C(=O)NCCO)n2)c2[nH]cc(C(=O)C(=O)N3CCC(=C(C#N)c4ccccc4)CC3)c12

>  <reported>
4.91

$$$$

* * *

- Tested on: HIV-1 Env-pseudoviruses (208-strain panel)
- method.notes: microbe, parasite or virus in culture
- Format: cell-based
- conditions.used: Human immunodeficiency virus 1, TZM-bl, […], clade C; read-out: IC50
- Protocol: Neutralization was measured using single-round-of-infection HIV-1 Env-pseudoviruses and TZM-bl target cells (ARP Cat No. #8129)[44],[45]. Compounds were prepared at 400 μM with 4% DMSO (dimethyl sulfoxide) in PBS (phosphate-buffered saline) and diluted 20 times as the starting concentration for serial dilution in the neutralization assays. […] After incubation at 37 °C for 2 days, infection of target cells was measured by luciferase activity. […]
readout.name: IC50 (nM)

>  <smiles.entry>
COc1cnc(-c2csc(C(=O)NCCO)n2)c2[nH]cc(C(=O)C(=O)N3CCC(=C(C#N)c4ccccc4)CC3)c12

>  <readout.name>
IC50

>  <reported>
0.1

$$$$

* * *

- System: HIV-1 Env-pseudoviruses (208-strain panel)
- method.notes: microbe, parasite or virus in culture
- Format: cell-based
- conditions.used: Human immunodeficiency virus 1, TZM-bl, 286.36, clade C; read-out: IC50
- Procedure: Neutralization was measured using single-round-of-infection HIV-1 Env-pseudoviruses and TZM-bl target cells (ARP Cat No. #8129)[44],[45]. Compounds were prepared at 400 μM with 4% DMSO (dimethyl sulfoxide) in PBS (phosphate-buffered saline) and diluted 20 times as the starting concentration for serial dilution in the neutralization assays. […] After incubation at 37 °C for 2 days, infection of target cells was measured by luciferase activity. […]
pIC50: −log10 of the molar value.
readout.name: pIC50

>  <compound>
COc1cnc(-c2csc(C(=O)NCCO)n2)c2[nH]cc(C(=O)C(=O)N3CCC(=C(C#N)c4ccccc4)CC3)c12 [BMS-818251]

>  <reported>
10.00

$$$$

* * *

- System: HIV-1 Env-pseudoviruses (208-strain panel)
- method.notes: microbe, parasite or virus in culture
- Type: cell-based
- conditions.used: Human immunodeficiency virus 1, TZM-bl, ZM214.15, clade C; read-out: IC50
pIC50: −log10 of the molar value.

>  <compound>
COc1cnc(-c2csc(C(=O)NCCO)n2)c2[nH]cc(C(=O)C(=O)N3CCC(=C(C#N)c4ccccc4)CC3)c12 [BMS-818251]

>  <pIC50>
9.70

$$$$

* * *

- System: HIV-1 Env-pseudoviruses (208-strain panel)
- method.notes: microbe, parasite or virus in culture
- Format: cell-based
- conditions.used: Human immunodeficiency virus 1, TZM-bl, T266-60, clade AG; read-out: IC50
pIC50: −log10 of the molar value.
readout.name: pIC50

>  <smiles.entry>
COc1cnc(-c2csc(C(=O)NCCO)n2)c2[nH]cc(C(=O)C(=O)N3CCC(=C(C#N)c4ccccc4)CC3)c12

>  <reported>
7.38

$$$$

* * *

- Tested on: HIV-1 Env-pseudoviruses (208-strain panel)
- method.notes: microbe, parasite or virus in culture
- Assay type: cell-based
- conditions.used: Human immunodeficiency virus 1, TZM-bl, TH023.6, clade AE; read-out: IC50

>  <compound>
COc1cnc(-c2csc(C(=O)NCCO)n2)c2[nH]cc(C(=O)C(=O)N3CCC(=C(C#N)c4ccccc4)CC3)c12 [BMS-818251]

>  <IC50>
> 20 µM

$$$$

* * *

- Tested on: HIV-1 Env-pseudoviruses (208-strain panel)
- method.notes: microbe, parasite or virus in culture
- Format: cell-based
- conditions.used: Human immunodeficiency virus 1, TZM-bl, MN.3, clade B; read-out: IC50
pIC50: −log10 of the molar value.

>  <compound>
COc1cnc(-c2csc(C(=O)NCCO)n2)c2[nH]cc(C(=O)C(=O)N3CCC(=C(C#N)c4ccccc4)CC3)c12 [BMS-818251]

>  <pIC50>
9.22

$$$$

* * *

- System: HIV-1 Env-pseudoviruses (208-strain panel)
- method.notes: microbe, parasite or virus in culture
- Type: cell-based
- conditions.used: Human immunodeficiency virus 1, TZM-bl, BS208.B1, clade A; read-out: IC50
- Experimental: Neutralization was measured using single-round-of-infection HIV-1 Env-pseudoviruses and TZM-bl target cells (ARP Cat No. #8129)[44],[45]. Compounds were prepared at 400 μM with 4% DMSO (dimethyl sulfoxide) in PBS (phosphate-buffered saline) and diluted 20 times as the starting concentration for serial dilution in the neutralization assays. […] After incubation at 37 °C for 2 days, infection of target cells was measured by luciferase activity. […]
pIC50: −log10 of the molar value.
readout.name: pIC50

>  <smiles.entry>
COc1cnc(-c2csc(C(=O)NCCO)n2)c2[nH]cc(C(=O)C(=O)N3CCC(=C(C#N)c4ccccc4)CC3)c12

>  <reported>
9.52

$$$$

* * *

- Test system: HIV-1 Env-pseudoviruses (208-strain panel)
- method.notes: microbe, parasite or virus in culture
- Assay type: cell-based
- conditions.used: Human immunodeficiency virus 1, TZM-bl, 6644.v2.c33, clade C; read-out: IC50
- Procedure: Neutralization was measured using single-round-of-infection HIV-1 Env-pseudoviruses and TZM-bl target cells (ARP Cat No. #8129)[44],[45]. Compounds were prepared at 400 μM with 4% DMSO (dimethyl sulfoxide) in PBS (phosphate-buffered saline) and diluted 20 times as the starting concentration for serial dilution in the neutralization assays. […] After incubation at 37 °C for 2 days, infection of target cells was measured by luciferase activity. […]
pIC50: −log10 of the molar value.

>  <smiles.entry>
COc1cnc(-c2csc(C(=O)NCCO)n2)c2[nH]cc(C(=O)C(=O)N3CCC(=C(C#N)c4ccccc4)CC3)c12

>  <pIC50>
8.70

$$$$

* * *

- System: HIV-1 Env-pseudoviruses (208-strain panel)
- method.notes: microbe, parasite or virus in culture
- Type: cell-based
- conditions.used: Human immunodeficiency virus 1, TZM-bl, Q168.a2, clade AD; read-out: IC50
- Method: Neutralization was measured using single-round-of-infection HIV-1 Env-pseudoviruses and TZM-bl target cells (ARP Cat No. #8129)[44],[45]. Compounds were prepared at 400 μM with 4% DMSO (dimethyl sulfoxide) in PBS (phosphate-buffered saline) and diluted 20 times as the starting concentration for serial dilution in the neutralization assays. […] After incubation at 37 °C for 2 days, infection of target cells was measured by luciferase activity. […]
readout.name: IC50

>  <smiles.entry>
COc1cnc(-c2csc(C(=O)NCCO)n2)c2[nH]cc(C(=O)C(=O)N3CCC(=C(C#N)c4ccccc4)CC3)c12

>  <reported>
3 nM

$$$$

* * *

- System: HIV-1 Env-pseudoviruses (208-strain panel)
- method.notes: microbe, parasite or virus in culture
- Type: cell-based
- conditions.used: Human immunodeficiency virus 1, TZM-bl, 25711-2.4, clade C; read-out: IC50

>  <smiles.entry>
COc1cnc(-c2csc(C(=O)NCCO)n2)c2[nH]cc(C(=O)C(=O)N3CCC(=C(C#N)c4ccccc4)CC3)c12

>  <IC50>
1 nM

$$$$

* * *

- System: HIV-1 Env-pseudoviruses (30-strain panel)
- method.notes: Neutralization assay, cross-clade 30-strain panel (Env-pseudoviruses, TZM-bl target cells)
- Assay type: cell-based
- conditions.used: Human immunodeficiency virus 1, TZM-bl, PVO.04 (Clade B); read-out: IC50
pIC50: −log10 of the molar value.
Measured pIC50 accompanies every entry in the list below.
readout.name: pIC50

>  <compound>
COc1cnc(-n2cnc(C)n2)c2[nH]cc(C(=O)C(=O)N3CCN(C(=O)c4ccccc4)CC3)c12

>  <readout.name>
pIC50

>  <comparison.symbol>
=

>  <reported>
9.05

$$$$
>  <compound>
O=C(c1ccsc1)N1CCN(C(=O)C2(c3cccc(Cl)c3)CC2)CC1 [Compound 484, reference compound]

>  <readout.name>
pIC50

>  <comparison.symbol>
=

>  <reported>
5.10

$$$$
>  <compound>
COc1cnc(-c2csc(C(=O)NCCO)n2)c2[nH]cc(C(=O)C(=O)N3CCC(=C(C#N)c4ccccc4)CC3)c12

>  <readout.name>
pIC50

>  <comparison.symbol>
>

>  <reported>
9.52

$$$$
>  <compound>
COc1cnc(-c2csc(CN(C)CCCN(C)C)n2)c2[nH]cc(C(=O)C(=O)N3CCC(=C(C#N)c4ccccc4)CC3)c12

>  <readout.name>
pIC50

>  <comparison.symbol>
=

>  <reported>
8.70

$$$$
>  <compound>
O=C(C(=O)N1CCN(C(=O)c2ccccc2)CC1)c1c[nH]c2c(F)ccc(Br)c12

>  <readout.name>
pIC50

>  <comparison.symbol>
=

>  <reported>
6.18

$$$$

Taken from paper PMC6318274.
